# Experimental Target: Aurora kinase A (AKA) (Homo sapiens, UniProt O14965)
# Construct: gene AURKA; recombinant AKA
# Sequence (O14965 whole entry): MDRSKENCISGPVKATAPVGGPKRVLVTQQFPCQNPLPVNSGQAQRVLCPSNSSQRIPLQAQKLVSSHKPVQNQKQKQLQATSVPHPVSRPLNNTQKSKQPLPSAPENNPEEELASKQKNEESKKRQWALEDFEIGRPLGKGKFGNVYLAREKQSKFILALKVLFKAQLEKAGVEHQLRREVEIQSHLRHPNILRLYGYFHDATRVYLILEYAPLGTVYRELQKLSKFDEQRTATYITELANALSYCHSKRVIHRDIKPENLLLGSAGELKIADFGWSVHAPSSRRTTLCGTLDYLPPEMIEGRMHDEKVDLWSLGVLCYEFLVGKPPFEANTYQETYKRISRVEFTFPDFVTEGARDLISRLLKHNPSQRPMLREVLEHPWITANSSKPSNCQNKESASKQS
# Experiment Description: Kinase-Glo in vitro kinase inhibition assay with recombinant AKA; also photoaffinity labeling with PD/WB and IP in HeLa cells
# Format: biochemical
Measurement Kind: pIC50
// returns pIC50 (minus log10 of molar concentration), number only

Entry under review: C#CCCC1(CCNC(=O)c2ccc(Nc3ncc4c(n3)-c3ccc(Cl)cc3C(c3c(F)cccc3OC)=NC4)cc2OC)N=N1 . Reported pIC50?
7.82

src = paper PMC4290084
